System: RBL-2H3 cells
ASSAY OVERVIEW: Anti-allergy test: A23187-induced β-hexosaminidase release
Type: cell-based
CONDITION LABEL: 500 μM/mL
Description: Equivalently divided supernatants (50 μL) of control wells and experimental wells were incubated with an equal volume (50 μL) of […] p-NAG prepared in 0.1 M citrate buffer (pH 4.5), in which the buffer is formed as a matrix of released β-hexosaminidase; the reaction, after 1 hour incubation at 37° C., was stopped by adding 100 μL of termination buffer (0.1M Na2/NaHCO3, pH 10.0), and then, the absorbance at a wavelength of 405 nm was measured with a microplate reader. […]
Marks after values point to notes of the source that are not given here.
READOUT TYPE: Percentage of inhibiting A23187-induced β-hexosaminidase release (%) 500 μM/mL

1) COCc1ccc(C=O)n1Cc1cccc(OC)c1 [Compound 3] :: 12.7 ± 0.7%**
2) CC(=O)[C@@H]1CCC(=O)N1Cc1ccccc1 [Compound 1, (5S)-acetyl-1-benzylpyrrolidine-2-ketone] :: 38.0±3.4%
3) O=Cc1ccc(CO)n1Cc1ccccc1 [Compound 6] :: 26.0 ± 2.4%***
4) COCc1ccc(C=O)n1Cc1ccccc1 [Compound 5] :: 57.7 ± 4.3%***
5) O=Cc1cc[n+]([O-])cc1Cc1ccccc1 [Compound 7] :: 18.0 ± 3.4%***

The origin of these recorded values is patent US11771729B2.
